Origin of measurements: patent US12509431B2

Test system: Porcine Atria myofibrils
assay: Myofibril ATPase assay (PK/LDH NADH-coupled), atria myofibrils
Assay type: biochemical
measurement-setup: Table 8
assay-metric: Porcine Atria IC25 (µM)
Number only, in µM; omit the unit.

Please review the following examples before continuing.
C[C@@H](NC(=O)CN1Cc2c(ccc(F)c2F)NC1=O)c1cnc(C#N)cn1 : 0.14
C[C@@H](NC(=O)CN1Cc2cc(C#N)ccc2NC1=O)c1ncc(F)cc1F : 100.00
Cc1nc(C#N)cnc1C(C)NC(=O)CN1Cc2c(ccc(F)c2F)NC1=O (single isomer, unassigned) : 0.05

Prompt: Any idea what its Porcine Atria IC25 is? The compound is Cc1cccc2c1C1(CC1)N(CC(=O)N[C@H](C)c1cnc(C#N)cn1)C(=O)N2
Response: 4.28
